Assay: Human HepG2 cell viability assay in 384 well format
Format: toxicity, cell-based
Parameters: dose 125 nL, time 70.5 hour; concentration not given beside the values
Conditions: HepG2 cells, read-out: Inhibition
Attribute: cytotoxicity at 70.5 h
RECORDED METRIC: cytotoxicity at 70.5 h (%)

• OCC1N(Cc2ccco2)[C@H]2CC[C@]1(O)CC2 (stereo partly drawn) = -9.15
• CS(=O)(=O)N1CC[C@@H]2O[C@@H](COCC(=O)N3CCCC3)CC[C@@H]21 = 22.1
• CC(CNC(=O)N1CCN(Cc2ccon2)CC1)N(C)C1CC1 (stereo not drawn) = -1.74
• CCC[C@H]1CN(C2CCOCC2)C[C@@H]1NC(=O)CCc1cnccn1 = 6.02
• CN(C)c1ncc(I)c(C2CCCN2S(C)(=O)=O)n1 (stereo not drawn) = 44.4
• CC(CCc1ccccc1)N1CCC(C(=O)NCc2ccccc2)CC1 (stereo not drawn) = 0.455
• CCCn1nc2c(cc1=O)CN(Cc1nc(C)c3ccccc3n1)CC2 = -7.04
• COc1ccccc1CN(C)C(=O)c1cc(CN2CCC(O)CC2)on1 = -0.685
• Cc1noc(C)c1CNC(=O)N1CCC(OCC2CC2)CC1 = 25.4
• Cc1cccc(NS(=O)(=O)c2cc(C(=O)O)oc2C)c1 = -0.669
• CCS(=O)(=O)c1ncc(CN(C)Cc2ccccc2OC)n1CCOC = -5.74
• CNc1nc(N2CCN(CC=C(C)C)C(CCO)C2)nc2c1CCC2 (stereo not drawn) = 6.77
• O=C1N[C@@H]2CCN(C(=O)c3ccccc3)[C@@H]2C(=O)N1c1ccc(F)cc1 = -12.9
• COc1ccc(C(C)N2CCN(Cc3nccn3C)CC2)cc1Cl (stereo not drawn) = -6.8
• Cc1cnc(N2CCC3(CC2)C(c2ccccc2)CC(=O)N3C)nc1 (stereo not drawn) = -10.2
• O=c1ccc2c(n1Cc1cccnc1)CCC(NCc1cccnc1)C2 (stereo not drawn) = -0.912
• O=C(C1CCCO1)N1C[C@@H]2CCN(c3cnccn3)C[C@@H]2C1 (stereo partly drawn) = -9.71
• COc1cccnc1NC(=O)COC1CCCC1 = 24.8
• CNC(=O)[C@H]1C[C@@H]2CN(Cc3ccccc3)C[C@H]1O2 = -5.88
• CCC1CN(C(=O)c2ccccc2N(C)C)CCN1C(C)C (stereo not drawn) = 1.87
• Cc1nc(-c2ccc(Cl)s2)sc1C(=O)NCCCC(N)=O = -4.42
• CCS(=O)(=O)c1ccccc1C(=O)N1CCCC(n2cccn2)C1 (stereo not drawn) = 18.2
• Cc1ccc(CC(NC(=O)CN(C)C2CC2)c2ccccn2)cc1 (stereo not drawn) = -1.04

Hey, just so you know, these numbers are from ChEMBL document CHEMBL3507680.
